system: MCF-7 human mammary carcinoma cell line; type: cell-based; conditions: Table 17-1; 10^-8 M; incubation 120 hr
So I've got a bunch of molecules here, and I need their T/C Value values.
// no unit, no text: just the number

[Q] Quick check: T/C Value of `COc1cccc2c1C(=O)c1c(O)c3c(c(O)c1C2=O)C[C@@](O)(C(=O)CO)C[C@@H]3O[C@H]1C[C@H](N2CCCCC2)[C@H](O)[C@H](C)O1` ?
[A] 67

[Q] Quick check: T/C Value of `COc1cccc2c1C(=O)c1c(O)c3c(c(O)c1C2=O)C[C@@](O)(C(=O)CO)C[C@@H]3O[C@H]1C[C@H](N2CCCC(=O)C2)[C@H](O)[C@H](C)O1.O=C(O)C(F)(F)F` ?
[A] 70

[Q] Quick check: T/C Value of `COc1cccc2c1C(=O)c1c(O)c3c(c(O)c1C2=O)C[C@@](O)(C(=O)CO)C[C@@H]3O[C@H]1C[C@H](N2CCCC2)[C@H](O)[C@H](C)O1.O=C(O)C(F)(F)F` ?
[A] 94

[Q] Quick check: T/C Value of `COc1cccc2c1C(=O)c1c(O)c3c(c(O)c1C2=O)C[C@@](O)(C(=O)CO)C[C@@H]3O[C@H]1C[C@H](N2CCC(=O)C2)[C@H](O)[C@H](C)O1.O=C(O)C(F)(F)F` ?
[A] 25

[Q] Quick check: T/C Value of `COc1cccc2c1C(=O)c1c(O)c3c(c(O)c1C2=O)C[C@@](O)(C(=O)CO)C[C@@H]3O[C@H]1C[C@H](N2Cc3ccccc3C2)[C@H](O)[C@H](C)O1.O=C(O)C(F)(F)F` ?
[A] 108

[Q] Quick check: T/C Value of `COc1cccc2c1C(=O)c1c(O)c3c(c(O)c1C2=O)C[C@@](O)(C(=O)CO)C[C@@H]3O[C@H]1C[C@H](N2CC=CC2)[C@H](O)[C@H](C)O1.O=C(O)C(F)(F)F` ?
[A] 65

[Q] Quick check: T/C Value of `COc1cccc2c1C(=O)c1c(O)c3c(c(O)c1C2=O)C[C@@](O)(C(=O)CO)C[C@@H]3O[C@H]1C[C@H](N)[C@H](O)[C@H](C)O1` ?
[A] 95
